STUDY_TARGET: T1, KRAS wild type peptide on HLA-A*11:01 (human)
T1 peptide: VVVGAGGVGK
TEST_DETAILS: cytokine release
OUTCOME_MEASURE: binding result

# annotated cases, reported binding result shown
TRAV12N-3*01/BV4*01 murine anti-KRAS G12D TCR (SEQ ID NOs: 11 and 12) (TCR, V domains shown) Valpha: GDSVTQTEGLVTLTEGLPVMLNCTYQTIYSNPFLFWYVQHLNESPRLLLKSFTDNKRTEHQGFHATLHKSSSSFHLQKSSAQLSDSALYYCALRGNAGAKLTFGGGTRLTVRP Vbeta: ETAVFQTPNYHVTQVGNEVSFNCKQTLGHDTMYWYKQDSKKLLKIMFSYNNKQLIVNETVPRRFSPQSSDKAHLNLRIKSVEPEDSAVYLCASSSRDWSAETLYFGSGTRLTVL; no recognition
TRAV3-3*01 + TRBV13-1*02 (TCR, V domains shown) Valpha: GEQVEQRPPHLSVREGDSAVITCTYTDPNSYYFFWYKQEPGASLQLLMKVFSSTEINEGQGFTVLLNKKDKRLSLNLTAAHPGDSAAYFCAVSGGTNSAGNKLTFGIGTRVLVRP Vbeta: EAAVTQSPRNKVTVTGGNVTLSCRQTNSHNYMYWYRQDTGHGLRLIHYSYGAGNLQIGDVPDGYKATRTTQEDFFLLLELASPSQTSLYFCASASWGGYAEQFFGPGTRLTVL; no recognition
TRAV19*01 + TRBV4*01 (TCR, V domains shown) Valpha: GQQVKQSSPSLTVQEGGILILNCDYENDMFDYFAWYKKYPDNSPTLLISVRSNVDKREDGRFTVFLNKSGKHFSLHITASQPEDTAVYLCAAGDSGGSNYKLTFGKGTLLTVTP Vbeta: ETAVFQTPNYHVTQVGNEVSFNCKQTLGHDTMYWYKQDSKKLLKIMFSYNNKQLIVNETVPRRFSPQSSDKAHLNLRIKSVEPEDSAVYLCASSRDWGPAEQFFGPGTRLTVL; no recognition
TRAV19*01/TRBV13-1*02 murine anti-KRAS G12V TCR (SEQ ID NOs: 145 and 146) (TCR, V domains shown) Valpha: GQQVKQSSPSLTVQEGGILILNCDYENDMFDYFAWYKKYPDNSPTLLISVRSNVDKREDGRFTVFLNKSGKHFSLHITASQPEDTAVYLCAAGDSGGSNYKLTFGKGTLLTVTP Vbeta: EAAVTQSPRNKVTVTGGNVTLSCRQTNSHNYMYWYRQDTGHGLRLIHYSYGAGNLQIGDVPDGYKATRTTQEDFFLLLELASPSQTSLYFCASASWGGYAEQFFGPGTRLTVL; no recognition

Here's the next entry for you.
Lab note: TRAV3-3*01/TRBV4*01 murine anti-KRAS G12V TCR (SEQ ID NOs: 133 and 134) (TCR, V domains shown) Valpha: GEQVEQRPPHLSVREGDSAVITCTYTDPNSYYFFWYKQEPGASLQLLMKVFSSTEINEGQGFTVLLNKKDKRLSLNLTAAHPGDSAAYFCAVSGGTNSAGNKLTFGIGTRVLVRP Vbeta: ETAVFQTPNYHVTQVGNEVSFNCKQTLGHDTMYWYKQDSKKLLKIMFSYNNKQLIVNETVPRRFSPQSSDKAHLNLRIKSVEPEDSAVYLCASSRDWGPAEQFFGPGTRLTVL gave binding result of no recognition
